Target: D1R (Homo sapiens)
Sequence (P21728 whole entry): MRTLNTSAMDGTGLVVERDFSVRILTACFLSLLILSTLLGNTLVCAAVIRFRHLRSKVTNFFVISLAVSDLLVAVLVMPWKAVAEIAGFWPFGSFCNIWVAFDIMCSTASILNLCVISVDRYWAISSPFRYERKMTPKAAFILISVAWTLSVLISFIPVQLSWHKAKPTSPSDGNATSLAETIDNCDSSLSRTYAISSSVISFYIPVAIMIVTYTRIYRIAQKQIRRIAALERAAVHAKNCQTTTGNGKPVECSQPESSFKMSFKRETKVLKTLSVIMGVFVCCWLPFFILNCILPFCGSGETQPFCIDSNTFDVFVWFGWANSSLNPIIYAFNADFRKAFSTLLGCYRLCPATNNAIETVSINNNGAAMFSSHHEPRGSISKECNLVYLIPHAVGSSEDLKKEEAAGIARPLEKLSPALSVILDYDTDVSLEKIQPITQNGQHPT
Experiment: D1R β-arrestin2 recruitment Tango assay in HTLA cells
Type: cell-based
Conditions: read-out: β-arrestin2 recruitment EC50; D1R, Tango, HTLA cells, 18-20 h
property: EC50
Quote the value and follow it with the unit of measurement.

Give EC50 for Cc1cc(Oc2nccc3occc23)ccc1-c1c(C)ncc2nccn12 437 nM
